# Target Or System: UniProtKB Q04760
# Sequence (Q04760 whole entry): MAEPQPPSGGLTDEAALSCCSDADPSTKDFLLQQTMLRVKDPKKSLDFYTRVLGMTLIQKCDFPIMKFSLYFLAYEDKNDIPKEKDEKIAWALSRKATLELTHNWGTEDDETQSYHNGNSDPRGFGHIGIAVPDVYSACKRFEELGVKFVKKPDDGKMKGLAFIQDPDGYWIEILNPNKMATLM
pIC50: −log10 of the molar value.

{"Smiles Record": "NS(=O)(=O)c1ccc2c(c1)S(=O)(=O)NC2=O", "Target Or System": "UniProtKB Q04760", "pIC50": 4.05}

###

# Target Or System: Lactoylglutathione lyase (Mus musculus)
# Sequence (Q9CPU0 whole entry): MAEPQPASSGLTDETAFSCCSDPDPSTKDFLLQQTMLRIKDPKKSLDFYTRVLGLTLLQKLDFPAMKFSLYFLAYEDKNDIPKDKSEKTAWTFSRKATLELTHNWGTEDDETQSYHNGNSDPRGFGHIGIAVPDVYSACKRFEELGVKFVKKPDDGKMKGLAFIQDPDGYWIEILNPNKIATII
# Test Summary: Competitive inhibition of recombinant mouse His-tagged Glyoxalase-1 using GSH and MGO as substrate by spectrophotometric method
pKi: −log10 of the molar value.
Let's look at some compounds and their measured pKi.
Reported Metric: pKi

{"Smiles Record": "Cc1cc(O)c(O)c(Oc2cc(C)c(C(=O)O)c(O)c2)c1", "Measured Value": 6.82}
{"Smiles Record": "COC(=O)c1c(C)cc(Oc2cc(C)cc(O)c2O)cc1O", "Measured Value": 6.64}
